Assay: Oral bioavailability in Beagle dog at 4 mg/kg
Type: ADME, organism-based, Canis lupus familiaris
Details: in vivo
readout kind: bioavailability (%)
Field: numeric (%). Do not append units.

Ask | GET /values?readout=bioavailability&item= COc1cc2nc(N3CCCN(C(=O)N4CCOCC4)CC3)cc(N)c2c(-c2ccc(F)cc2)c1OC
Reply | 71

----------
Experiment: Oral bioavailability in Beagle dog at 0.6 mg/kg
Format: ADME, organism-based, Canis lupus familiaris
Conditions: in vivo
readout kind: bioavailability (%)
Field: numeric (%). Do not append units.

Ask | GET /values?readout=bioavailability&item= COc1cc2nc(N3CCc4c(cccc4NS(C)(=O)=O)C3)nc(N)c2c(-c2ccccn2)c1OC
Reply | 79

----------
System: Liver microsomes
Test: Unbound intrinsic clearance in human liver microsomes at 1 uM
Type: ADME, Microsome
readout kind: log10(CL) (log10 of the value in mL/min/kg)
Log10 applied to CL; unit prior to transform: mL/min/kg.

Ask | What reported log10(CL) corresponds to COc1cc2nc(N3CCc4ncccc4C3)nc(N)c2c(-c2ncccn2)c1OC on Liver microsomes?
Reply | 1.08

Ask | What reported log10(CL) corresponds to COc1cc2nc(N3CCc4c(cccc4NS(C)(=O)=O)C3)nc(N)c2c(-c2ccccn2)c1OC [TAPRIZOSIN] on Liver microsomes?
Reply | 1.11

Ask | What reported log10(CL) corresponds to COc1cc2nc(N3CCCN(C(=O)N4CCOCC4)CC3)cc(N)c2c(-c2ccc(F)cc2)c1OC on Liver microsomes?
Reply | 2.19

----------
Assay: Elimination half life in Sprague-Dawley rat at 3 mg/kg, iv
Assay type: ADME, organism-based
Design: dose 3 mg/kg, route intravenous
Conditions: in vivo
readout kind: half-life (h)
Field: numeric (h). Do not append units.

Ask | GET /values?readout=half-life&item= COc1cc2c(cc1OC)CN(c1nc(N3CCCN(C(=O)N4CC(O)C(O)C4)CC3)nc3cc(OC)c(OC)cc13)CC2 (stereo unspecified)
Reply | 1.4

----------
Test: Oral absorption in Beagle dog at 0.5 mg/kg, po
Format: ADME, organism-based, Canis lupus familiaris
Design: dose 0.5 mg/kg, route oral
Details: in vivo, read-out: Fabs
readout kind: Fa (%)
Field: numeric (%). Do not append units.

Ask | GET /values?readout=Fa&item= COc1cc2nc(N3CCCN(C(=O)N4CCOCC4)CC3)cc(N)c2c(-c2ncco2)c1OC
Reply | 86

Ask | GET /values?readout=Fa&item= COc1cc2nc(N3CCc4ncccc4C3)nc(N)c2c(-c2ncccn2)c1OC
Reply | 100

Ask | GET /values?readout=Fa&item= COc1cc2nc(N3CCCN(C(=O)N4CCOCC4)CC3)cc(N)c2c(-c2ccccc2)c1OC
Reply | 29

----------
Assay: Volume of distribution in Beagle dog at 0.3 mg/kg, iv
Assay type: ADME, organism-based, Canis lupus familiaris
Set-up: dose 0.3 mg/kg, route intravenous
Details: in vivo
readout kind: Vd
In your response, put the unit directly after the numeric value.

Ask | GET /values?readout=Vd&item= COc1cc2nc(N3CCc4c(cccc4NS(C)(=O)=O)C3)nc(N)c2c(-c2ccccn2)c1OC [TAPRIZOSIN]
Reply | 4.4 L/kg

----------
Assay: Elimination half life in Beagle dog at 0.3 mg/kg, iv
Type: ADME, organism-based, Canis lupus familiaris
Parameters: dose 0.3 mg/kg, route intravenous
Settings: in vivo
readout kind: half-life (h)
Field: numeric (h). Do not append units.

Ask | GET /values?readout=half-life&item= COc1cc2nc(N3CCc4c(cccc4NS(C)(=O)=O)C3)nc(N)c2c(-c2ccccn2)c1OC [TAPRIZOSIN]
Reply | 9.2

----------
Overview of recorded fraction unbound at 1 ug/ml for various molecules
Organism: Homo sapiens
Assay: Protein binding in human plasma at 1 ug/ml
Conditions: read-out: PPB (converted)

1. COc1cc2c(cc1OC)CN(c1nc(N3CCCN(C(=O)N4CC(O)C(O)C4)CC3)nc3cc(OC)c(OC)cc13)CC2 (stereo not drawn) :: 0.03

Ask | GET /values?readout=fraction unbound at 1 ug/ml&item= COc1cc2nc(N3CCCN(C(=O)N4CCOCC4)CC3)cc(N)c2c(-c2ccc(F)cc2)c1OC
Reply | 0.06

Ask | GET /values?readout=fraction unbound at 1 ug/ml&item= COc1cc2nc(N3CCc4c(cccc4NS(C)(=O)=O)C3)nc(N)c2c(-c2ccccn2)c1OC
Reply | 0.07

----------
Assay: Metabolic stability in Beagle dog liver microsomes assessed as half life at 1 uM
Assay type: ADME, Canis lupus familiaris, Microsome
Overview of recorded half-life at 1 µM for various compounds

Known half-life at 1 µM results, listed for orientation:
1. COc1cc2nc(N3CCCN(C(=O)N4CCOCC4)CC3)nc(N)c2cc1-c1ccccn1 :: 14 min
2. COc1cc2nc(N3CCc4c(cccc4NS(C)(=O)=O)C3)nc(N)c2c(-c2ccccn2)c1OC :: 30 min
3. COc1cc2nc(N3CCCN(C(=O)N4CCOCC4)CC3)cc(N)c2c(-c2ccc(F)cc2)c1OC :: 30 min
4. COc1cc2nc(N3CCCN(C(=O)N4CCOCC4)CC3)cc(N)c2c(-c2ccccc2)c1OC :: 25 min
5. COc1cc2nc(N3CCCN(C(=O)N4CCOCC4)CC3)nc(N)c2c(-c2ccccn2)c1OC :: 46 min

Ask | GET /values?readout=half-life at 1 µM&item= COc1cc2nc(N3CCCN(C(=O)N4CCOCC4)CC3)cc(N)c2c(-c2ncco2)c1OC
Reply | 80 min

Ask | GET /values?readout=half-life at 1 µM&item= COc1cc2nc(N3CCc4ncccc4C3)nc(N)c2c(-c2ncccn2)c1OC
Reply | 36 min

----------
Experiment: Metabolic stability in Sprague-Dawley rat assessed as hepatic extraction ratio
Format: ADME, tissue-based
Settings: liver
Overview of recorded hepatic extraction ratio for various compounds
Number only, please.

1) COc1cc2nc(N3CCCN(C(=O)N4CC(O)C(O)C4)CC3)nc(N3CC4C(CC(=O)OC(C)(C)C)C4C3)c2cc1OC (centres undefined) :: 0.75
2) COc1cc2nc(N3CCCN(C(=O)N4CC(O)C(O)C4)CC3)nc(Nc3ccccn3)c2cc1OC (centres undefined) :: 0.7
3) COc1cc2c(cc1OC)CN(c1cc(N3CCCN(C(=O)N4CC(O)C(O)C4)CC3)nc3cc(OC)c(OC)cc13)CC2 (centres undefined) :: 0.8

Now for the compound whose hepatic extraction ratio we want.
Ask | GET /values?readout=hepatic extraction ratio&item= COc1cc2c(cc1OC)CN(c1nc(N3CCCN(C(=O)N4CC(O)C(O)C4)CC3)nc3cc(OC)c(OC)cc13)CC2 (centres undefined)
Reply | 0.7

----------
Assay: Elimination half life in Sprague-Dawley rat at 0.5 mg/kg, iv
Type: ADME, organism-based
Design: dose 0.5 mg/kg, route intravenous
Conditions: in vivo
Overview of recorded half-life for various compounds
Field: numeric (min). Do not append units.

1. COc1cc2nc(N3CCCN(C(=O)N4CCOCC4)CC3)cc(N)c2c(-c2ccc(F)cc2)c1OC :: 60

Now for the compound whose half-life we want.
Ask | GET /values?readout=half-life&item= COc1cc2nc(N3CCc4c(cccc4NS(C)(=O)=O)C3)nc(N)c2c(-c2ccccn2)c1OC
Reply | 60

----------
Experiment: Metabolic stability in human liver microsomes assessed as half life at 1 uM
Type: ADME, Microsome
Doc: threshold 9 min (exclusive). Items with half-life at 1 µM beneath it return YES; others return NO.

Use these answered entries as a reference point.
1) COc1cc2nc(N3CCc4c(cccc4NS(C)(=O)=O)C3)nc(N)c2c(-c2ccccn2)c1OC :: NO
2) COc1cc2nc(N3CCc4ncccc4C3)nc(N)c2c(-c2ncccn2)c1OC :: NO

Ask | Dear colleague, could you confirm whether half-life at 1 µM of COc1cc2nc(N3CCCN(C(=O)N4CCOCC4)CC3)cc(N)c2c(-c2ncco2)c1OC falls below 9 min? Thanks.
Reply | NO

Ask | Dear colleague, could you confirm whether half-life at 1 µM of COc1cc2nc(N3CCCN(C(=O)N4CCOCC4)CC3)cc(N)c2c(-c2ccc(F)cc2)c1OC falls below 9 min? Thanks.
Reply | YES

Ask | Dear colleague, could you confirm whether half-life at 1 µM of COc1cc2nc(N3CCCN(C(=O)N4CCOCC4)CC3)nc(N)c2cc1-c1ccccn1 falls below 9 min? Thanks.
Reply | YES

----------
Test: Volume of distribution in Sprague-Dawley rat at 0.5 mg/kg, iv
Assay type: ADME, organism-based
Set-up: dose 0.5 mg/kg, route intravenous
Details: in vivo
Overview of recorded Vd for various molecules
Field: numeric (L/kg). Do not append units.

1) COc1cc2nc(N3CCCN(C(=O)N4CCOCC4)CC3)cc(N)c2c(-c2ccc(F)cc2)c1OC :: 5.6

Now for the molecule whose Vd we want.
Ask | GET /values?readout=Vd&item= COc1cc2nc(N3CCc4c(cccc4NS(C)(=O)=O)C3)nc(N)c2c(-c2ccccn2)c1OC [TAPRIZOSIN]
Reply | 1.7
